- Protocol text: chemical genetic growth profiling, strain panel (AID 1159580);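 also: tested at 20 µM; growth read once vehicle control cultures reached saturation at 30 °C; 1 = growth at the plate median or of vehicle wells; lower values mean less growth of the strain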
- Condition info: S. cerevisiae deletion strains, growth OD, locus YPR167C, strain met16, hits give low values
Among all 5,500 compounds or so, about 2,000 (36%) were called active. About 18% were inconclusive and are not listed. The list shows a part of the results.
Reported values of normalized growth for individual entries
Readout name: normalized growth

| Compound | Readout number |
| --- | --- |
| COC(=O)C[C@H]1C(C)(C)[C@@H](OC(C)=O)[C@@H]2CC3C4CC(=O)O[C@@H](c5ccoc5)[C@]4(C)CCC3[C@@]1(C)C2=O (some centres not stated) | 1.02 |
| CSCCC(NC=O)C(=O)NC(CC(C)C)C(=O)NC(Cc1ccccc1)C(=O)O (configuration not stated) | 0.994 |
| Cn1nnnc1SCC1=C(C(=O)O)N2C(=O)C(NC(=O)C(OC=O)c3ccccc3)C2SC1 (configuration not stated) | 1.02 |
| CC(=O)OC1CCC23C(=O)OC45CCC(C6=CC(=O)OC6)C4(C)CCC2C5CCC3(O)C1 (configuration not stated) | 1.02 |
| CCCc1nc(C(C)(C)O)c(C(=O)OCc2oc(=O)oc2C)n1Cc1ccc(-c2ccccc2-c2nn[nH]n2)cc1 | 0.982 |
| C/C=C(\C)C(=O)OC1[C@@H]2C=C3C4CC(=O)O[C@@H](c5ccoc5)[C@]4(C)CCC3[C@@](C)(C2=O)[C@@H](C(O)C(=O)OC)C1(C)C (some centres not stated) | 1.02 |
| COC(=O)C[C@H]1C(C)(C)C(OC(C)=O)[C@]2(O)C=C3C4CC(=O)O[C@@H](c5ccoc5)[C@]4(C)CCC3[C@@]1(C)C2=O (some centres not stated) | 1.01 |

###

- Protocol text: chemical genetic growth profiling, strain panel (AID 1159580);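 also: tested at 20 µM; growth read once vehicle control cultures reached saturation at 30 °C; 1 = growth at the plate median or of vehicle wells; lower values mean less growth of the strain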
- Condition info: S. cerevisiae deletion strains, growth OD, locus YER110C, hits give low values
About 2,000 (36%) of roughly 5,500 compounds were called active. About 18% were inconclusive and are not listed. This is one part of the list.

| Compound | normalized growth |
| --- | --- |
| COC(=O)C1=CO[C@@H](O[C@@H]2O[C@H](CO)[C@@H](O)[C@H](O)[C@H]2O)[C@@H]2[C@@H](C)[C@@H](O)C[C@H]12 | 0.976 |
| COc1cc2ccc(=O)oc2c(OC)c1OC | 1.01 |
| CC(C)=CCOc1cc2oc(=O)ccc2cc1O | 0.971 |
| C[C@]12C=CC(=O)C=C1CCC1C2CC[C@]2(C)C(=O)CCC12 (stereo partly drawn) | 0.984 |
| C[C@]12C=CC(=O)C=C1CCC1C2C(=O)C[C@@]2(C)C1CC[C@]2(O)C(=O)CO (stereo partly drawn) | 0.966 |
| CC(=O)OC1CCC2C3CCc4cc(O)ccc4C3CCC12C (stereo not drawn) | 0.995 |
| O=c1ccc2cc(O[C@@H]3O[C@H](CO)[C@@H](O)[C@H](O)[C@H]3O)c(O)cc2o1 | 0.99 |
| COc1ccc2ccc(=O)oc2c1CC=C(C)C | 0.873 |

###

- Protocol text: chemical genetic growth profiling, strain panel (AID 1159580);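 also: tested at 20 µM; growth read once vehicle control cultures reached saturation at 30 °C; 1 = growth at the plate median or of vehicle wells; lower values mean less growth of the strain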
- Condition info: S. cerevisiae deletion strains, growth OD, locus YMR231W, strain pep5, hits give low values
Hit rate of the full screen: of about 5,500 compounds, about 2,000 (36%) were called active. Inconclusive results (about 18%) are left out. Some of the results follow.
Attribute: normalized growth
Readout name: normalized growth

| Compound | Readout name | Result |
| --- | --- | --- |
| C[C@]12CCC3c4ccc(O)cc4CCC3C1CC[C@@H]2OC(=O)CCC1CCCC1 (stereo partly drawn) | normalized growth | 1 (inactive) |
| CC(=O)O[C@H]1CC2CCC3C(CC[C@@]4(C)C3C[C@H]([N+]3(C)CCCCC3)[C@@H]4OC(C)=O)[C@@]2(C)C[C@@H]1[N+]1(C)CCCCC1 (stereo partly drawn) | normalized growth | 1.01 (inactive) |
| CCC(=O)O[C@H]1CCC2C3CCc4cc(O)ccc4C3CC[C@@]21C (stereo partly drawn) | normalized growth | 1.01 (inactive) |

Values compiled from PubChem BioAssay AID1159580.
